Values from patent US20250114345A1

Overview of recorded Dmax for various compounds
# Target: p300 (Homo sapiens, UniProt Q09472)
# Construct: host or cells: A549 P300 HiBit cells
# Sequence (Q09472 whole entry): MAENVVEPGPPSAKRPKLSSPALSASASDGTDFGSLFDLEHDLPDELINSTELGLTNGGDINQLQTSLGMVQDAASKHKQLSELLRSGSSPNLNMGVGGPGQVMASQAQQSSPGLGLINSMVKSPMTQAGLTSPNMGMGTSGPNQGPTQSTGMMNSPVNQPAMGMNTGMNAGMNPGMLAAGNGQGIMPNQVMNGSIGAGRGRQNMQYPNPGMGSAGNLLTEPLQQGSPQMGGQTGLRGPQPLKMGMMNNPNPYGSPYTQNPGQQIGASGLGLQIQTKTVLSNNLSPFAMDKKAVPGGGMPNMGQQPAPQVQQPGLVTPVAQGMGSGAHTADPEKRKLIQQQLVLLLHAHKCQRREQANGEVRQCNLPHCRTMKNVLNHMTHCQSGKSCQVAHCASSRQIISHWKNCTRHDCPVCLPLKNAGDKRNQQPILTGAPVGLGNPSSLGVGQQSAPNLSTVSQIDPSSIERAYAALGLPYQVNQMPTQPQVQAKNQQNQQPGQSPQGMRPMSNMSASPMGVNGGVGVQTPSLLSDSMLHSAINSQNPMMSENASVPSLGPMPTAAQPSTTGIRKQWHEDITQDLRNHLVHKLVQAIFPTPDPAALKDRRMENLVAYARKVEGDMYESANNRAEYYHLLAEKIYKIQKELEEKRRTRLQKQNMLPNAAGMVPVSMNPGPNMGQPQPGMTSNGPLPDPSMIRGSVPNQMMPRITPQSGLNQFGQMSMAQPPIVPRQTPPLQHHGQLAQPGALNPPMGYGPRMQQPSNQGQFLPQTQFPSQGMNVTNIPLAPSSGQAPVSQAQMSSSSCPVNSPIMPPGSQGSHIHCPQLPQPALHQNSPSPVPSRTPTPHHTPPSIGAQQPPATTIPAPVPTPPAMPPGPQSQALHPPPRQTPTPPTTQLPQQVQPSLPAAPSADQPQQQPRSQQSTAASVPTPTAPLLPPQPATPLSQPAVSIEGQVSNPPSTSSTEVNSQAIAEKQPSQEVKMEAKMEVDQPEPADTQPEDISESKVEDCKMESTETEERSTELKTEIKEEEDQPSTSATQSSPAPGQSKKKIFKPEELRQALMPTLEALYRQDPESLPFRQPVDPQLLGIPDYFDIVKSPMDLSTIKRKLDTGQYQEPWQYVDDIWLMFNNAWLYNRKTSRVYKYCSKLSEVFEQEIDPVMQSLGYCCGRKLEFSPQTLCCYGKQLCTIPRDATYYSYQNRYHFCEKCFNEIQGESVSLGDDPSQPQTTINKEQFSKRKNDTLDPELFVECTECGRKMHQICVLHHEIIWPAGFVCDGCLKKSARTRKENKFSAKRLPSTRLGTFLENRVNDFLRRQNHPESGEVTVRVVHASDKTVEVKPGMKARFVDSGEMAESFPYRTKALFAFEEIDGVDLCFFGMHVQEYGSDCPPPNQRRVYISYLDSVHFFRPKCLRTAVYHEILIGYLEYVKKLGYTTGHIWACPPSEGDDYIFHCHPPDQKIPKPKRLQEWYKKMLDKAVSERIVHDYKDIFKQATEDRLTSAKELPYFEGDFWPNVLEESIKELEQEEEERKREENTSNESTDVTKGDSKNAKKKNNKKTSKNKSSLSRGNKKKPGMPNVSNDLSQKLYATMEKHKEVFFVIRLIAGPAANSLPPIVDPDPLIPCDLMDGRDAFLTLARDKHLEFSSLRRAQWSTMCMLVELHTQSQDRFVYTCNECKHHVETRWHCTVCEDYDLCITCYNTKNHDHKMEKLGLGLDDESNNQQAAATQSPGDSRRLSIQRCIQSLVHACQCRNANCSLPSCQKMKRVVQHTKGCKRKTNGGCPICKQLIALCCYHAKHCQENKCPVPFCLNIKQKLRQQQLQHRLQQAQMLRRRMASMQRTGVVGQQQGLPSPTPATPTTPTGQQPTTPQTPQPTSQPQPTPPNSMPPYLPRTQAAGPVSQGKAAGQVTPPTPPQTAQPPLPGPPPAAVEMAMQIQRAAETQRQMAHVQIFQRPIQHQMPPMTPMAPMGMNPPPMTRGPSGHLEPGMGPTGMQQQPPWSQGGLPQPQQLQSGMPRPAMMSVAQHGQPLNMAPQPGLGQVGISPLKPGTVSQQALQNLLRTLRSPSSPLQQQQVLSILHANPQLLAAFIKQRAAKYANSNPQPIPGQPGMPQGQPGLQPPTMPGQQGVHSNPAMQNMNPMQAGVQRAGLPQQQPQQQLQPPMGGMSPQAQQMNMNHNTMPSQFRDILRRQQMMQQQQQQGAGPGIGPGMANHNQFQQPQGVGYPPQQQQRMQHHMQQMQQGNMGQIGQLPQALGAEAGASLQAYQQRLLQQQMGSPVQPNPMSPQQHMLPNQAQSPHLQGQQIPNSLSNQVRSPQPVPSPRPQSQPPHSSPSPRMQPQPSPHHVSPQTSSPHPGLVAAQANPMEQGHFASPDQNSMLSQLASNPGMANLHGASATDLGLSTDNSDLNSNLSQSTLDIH
# Run Description: P300 degradation, HiBit technology in A549 P300 HiBit cells (2 h)
# Assay type: cell-based
# Experimental Parameters: A549, A549 P300 HiBit cells, 2 hrs post treatment

Recorded results for 6 compounds are shown here.
Compound: CC(C#Cc1ccc2occ(C3CCC(=O)NC3=O)c2c1)NC(=O)c1ccc(-c2ncc(N(C)c3cc(C(C)C)c4c(c3)n(C)c(=O)n4C)cn2)cn1 (stereo not shown)
Target: p300 (Homo sapiens, UniProt Q09472)
Result: < 20%
--
Compound: Cc1cc(-c2cc3cccc(-c4cc(C(C)C)c5c(c4)n(C)c(=O)n5C)c3cn2)cnc1C(=O)NCC#Cc1cccc(NC23CC(C2)C(=O)NC3=O)c1
Target: p300 (Homo sapiens, UniProt Q09472)
Result: > 80%
--
Compound: Cc1cc2c(N3CCCc4nc(-c5ccc(C(=O)NCC=C=Cc6ccc7occ(C8CCC(=O)NC8=O)c7c6)nc5)ncc43)cc(C3CCOCC3)cc2n(C)c1=O (stereo not shown)
Target: p300 (Homo sapiens, UniProt Q09472)
Result: 40 to 59%
--
Compound: Cc1cc2c(-c3cn(C)c(=O)c4cc(-c5ccc(C(=O)NCC#Cc6cc7c(C8CCC(=O)NC8=O)cccc7o6)nc5)ncc34)cc(C3CCOCC3)nc2n(C)c1=O (stereo not shown)
Target: p300 (Homo sapiens, UniProt Q09472)
Result: > 80%
--
Compound: CC(C)c1cc(-c2cccc3cc(-c4ccc(C(=O)NCC#Cc5cnc6c(c5)c(C5CCC(=O)NC5=O)cn6C)nc4)ncc23)cc2c1n(C)c(=O)n2C (stereo not shown)
Target: p300 (Homo sapiens, UniProt Q09472)
Result: 60 to 79%
--
Compound: CC(C)c1cc(N2CCOc3nc(-c4ccc(C(=O)NCC#Cc5ccc6occ(C7CCC(=O)NC7=O)c6c5)nc4)ncc32)cc2c1n(C)c(=O)n2C (stereo not shown)
Target: p300 (Homo sapiens, UniProt Q09472)
Result: > 80%

Now for the compound whose Dmax we want.
query: Any idea what Dmax was measured for Cc1cc(-c2ncc(N(C)c3cc(C4CCOCC4)c4c(c3)n(C)c(=O)n4C)cn2)cnc1C(=O)NCC#Cc1ccc2occ(C3CCC(=O)NC3=O)c2c1 (stereo not shown) ?
result: > 80%

* * *

# Target: p300 (Homo sapiens, UniProt Q09472)
# Construct: host or cells: A549 P300 HiBit cells
# Run Description: P300 degradation, HiBit technology in A549 P300 HiBit cells (2 h)
# Format: cell-based
# Experimental Parameters: A549, A549 P300 HiBit cells, 2 hrs post treatment
Dmax by entry:

Consider the following illustrative entries.
Compound: CCc1cc(-c2ncc3c(n2)CCCN3c2cc(C3CCOCC3)cc3c2cc(C)c(=O)n3C)cnc1C(=O)NCC#Cc1ccc2occ(C3CCC(=O)NC3=O)c2c1 (stereo not drawn) [Example B144]
Readout Name: Dmax
Result: > 80%
//
Compound: Cc1cc2c(N3CCCc4nc(-c5ccc(C(=O)NCC#Cc6cc7c(C8CCC(=O)NC8=O)cccc7o6)nc5)ncc43)cc(C3CC3)cc2n(C)c1=O (stereo not drawn) [Example B171]
Readout Name: Dmax
Result: > 80%
//
Compound: COc1cc(-c2ncc3c(n2)CCCN3c2cc(C3CCOCC3)cc3c2cc(C)c(=O)n3C)cnc1C(=O)NCC#Cc1ccc2occ(C3CCC(=O)NC3=O)c2c1 (stereo not drawn) [Example B24]
Readout Name: Dmax
Result: > 80%
//
Compound: Cc1cc2c(N3CCN(C)c4nc(-c5ccc(C(=O)NCC#Cc6ccc7occ(C8CCC(=O)NC8=O)c7c6)nc5)ncc43)cccc2n(C)c1=O (stereo not drawn) [Example B33]
Readout Name: Dmax
Result: > 80%
//
Compound: CN1CCN(c2nc(-c3cccc4cc(-c5ccc(C(=O)NCC#Cc6ccc7occ(C8CCC(=O)NC8=O)c7c6)nc5)ncc34)cc3c2n(C)c(=O)n3C)CC1 (stereo not drawn) [Example A102]
Readout Name: Dmax
Result: > 80%
//
Compound: Cc1cc2c(N3CCCc4cc(-c5ccc(C(=O)NCC#Cc6cc7c(C8CCC(=O)NC8=O)cccc7o6)nc5)nnc43)cc(C3CCOCC3)cc2n(C)c1=O (stereo not drawn) [Example B138]
Readout Name: Dmax
Result: > 80%
//
Compound: Cn1c(=O)n(C)c2c(-n3cccn3)nc(-c3cccc4cc(-c5ccc(C(=O)NCC#Cc6ccc7occ(C8CCC(=O)NC8=O)c7c6)nc5)ncc34)cc21 (stereo not drawn) [Example A152]
Readout Name: Dmax
Result: 20 to 39%
//
Compound: Cn1c(=O)n(C)c2c(F)cc(-c3cccc4cc(-c5ccc(C(=O)NCC#Cc6ccc7occ(C8CCC(=O)NC8=O)c7c6)nc5)ncc34)cc21 (stereo not drawn) [Example A64]
Readout Name: Dmax
Result: > 80%

query: So what Dmax did Cc1cc(-c2ccc(N(C)c3cc(C(C)C)c4c(c3)n(C)c(=O)n4C)cc2)cnc1C(=O)NCC#Cc1cccc(NC2CCC(=O)NC2=O)c1 (stereo not drawn) [Example A43] get with p300 (Homo sapiens, UniProt Q09472)?
result: 60 to 79%
